System: Candida albicans SC5314
EXPERIMENT DESCRIPTION: CFU assay, neutralization of candidacidal activity by laminarin
Format: cell-based
SETTINGS: peptide at its minimal candidacidal concentration; laminarin 100 µg/mL
Peptide text beside a SMILES is read from it.
MEASURE: C. albicans Growth Inhibition (%) in the Presence of Laminarin 100 µg/mL
Give the number; % is assumed, so skip it.

COMPOUND	READOUT UNIT	RESULT VALUE
CSCC[C@H](NC(=O)[C@@H](NC(=O)[C@@H](NC(=O)[C@H](CCCCN)NC(=O)[C@H](C)N)C(C)C)[C@@H](C)O)C(=O)N[C@H](C(=O)N[C@@H](CS)C(=O)N[C@@H](CO)C(=O)N[C@@H](C)C(=O)N[C@@H](CO)C(=O)O)[C@@H](C)O [A10S (KP)] (H-AKVTMTCSAS-OH)	%	96.39

Reported C. albicans Growth Inhibition (%) in the Presence of Laminarin 100 µg/mL ( CSCC[C@H](NC(=O)[C@@H](NC(=O)[C@@H](NC(=O)[C@H](CCCCN)NC(=O)[C@@H](N)Cc1ccc(O)cc1)C(C)C)[C@@H](C)O)C(=O)N[C@H](C(=O)N[C@@H](CS)C(=O)N[C@@H](CO)C(=O)N[C@@H](C)C(=O)N[C@@H](CO)C(=O)O)[C@@H](C)O [Peptide Y10S] (H-YKVTMTCSAS-OH) ) = 5.57

Reported C. albicans Growth Inhibition (%) in the Presence of Laminarin 100 µg/mL of CSCC[C@H](NC(=O)[C@@H](NC(=O)[C@@H](NC(=O)[C@H](CCCCN)NC(=O)[C@@H](N)Cc1c[nH]cn1)C(C)C)[C@@H](C)O)C(=O)N[C@H](C(=O)N[C@@H](CS)C(=O)N[C@@H](CO)C(=O)N[C@@H](C)C(=O)N[C@@H](CO)C(=O)O)[C@@H](C)O [Peptide H10S] (H-HKVTMTCSAS-OH) : 6.20
